Origin of values: paper PMC2817471

experimental.target: T1, XPD (Sulfolobus acidocaldarius, UniProt Q4JC68 1-551)
T1 sequence: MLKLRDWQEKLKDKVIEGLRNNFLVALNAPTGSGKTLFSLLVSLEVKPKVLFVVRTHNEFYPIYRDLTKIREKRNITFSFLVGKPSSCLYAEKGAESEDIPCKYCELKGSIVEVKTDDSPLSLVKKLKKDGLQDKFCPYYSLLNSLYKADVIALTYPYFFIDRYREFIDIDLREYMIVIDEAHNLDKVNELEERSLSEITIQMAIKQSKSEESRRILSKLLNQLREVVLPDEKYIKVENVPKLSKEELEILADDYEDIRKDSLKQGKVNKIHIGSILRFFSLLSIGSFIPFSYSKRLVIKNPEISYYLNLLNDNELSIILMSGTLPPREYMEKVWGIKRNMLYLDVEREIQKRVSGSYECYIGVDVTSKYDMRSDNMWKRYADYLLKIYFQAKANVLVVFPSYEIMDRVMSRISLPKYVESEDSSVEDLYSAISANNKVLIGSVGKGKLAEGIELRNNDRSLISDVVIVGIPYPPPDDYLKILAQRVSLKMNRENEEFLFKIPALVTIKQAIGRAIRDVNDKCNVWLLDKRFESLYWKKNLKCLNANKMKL
protocol.details: ITC
outcome.measure: pKd
Worth noting: pKd values are minus log10 of concentrations stated in mol/L.

Sure, the documented pKd for TTTTTTTTTTTT (ssDNA) [ITC-T12] is 5.25
